Values from ChEMBL document CHEMBL5303573

# Assay Overview: The drug is tested on Clostridium sp. strain: fecal isolate for biotransformation. The drug concentrations were measured before and after a 12-h incubation by liquid-chromatography-coupled mass spectrometry (LC–MS)
# Study Conditions: 2 µM
Endpoint Label: Bacterial Biotransformation

CC(C)NCC(O)COc1ccc(COCCOC(C)C)cc1.CC(C)NCC(O)COc1ccc(COCCOC(C)C)cc1.O=C(O)/C=C/C(=O)O (stereo not given) [BISOPROLOL FUMARATE]	Compound NOT metabolized
CCN1CCCC1CNC(=O)c1cc(S(=O)(=O)CC)c(N)cc1OC (stereo not given) [AMISULPRIDE]	Compound NOT metabolized
CCN(CC)CC#CCOC(=O)C(O)(c1ccccc1)C1CCCCC1.Cl (stereo not given) [OXYBUTYNIN CHLORIDE]	Compound metabolized
CCc1cccc2c3c([nH]c12)C(CC)(CC(=O)O)OCC3 (stereo not given) [ETODOLAC]	Compound NOT metabolized
CC(CN(C)C)CN1c2ccccc2CCc2ccccc21.O=C(O)/C=C\C(=O)O (stereo not given) [TRIMIPRAMINE MALEATE]	Compound NOT metabolized
CN1CCc2cccc3c2[C@H]1Cc1ccc(O)c(O)c1-3 [APOMORPHINE]	Compound NOT metabolized
Cc1nc2n(c(=O)c1CCN1CCC(c3noc4cc(F)ccc34)CC1)CCCC2 [RISPERIDONE]	Compound metabolized
O=C(O)CCC(=O)O.O=C(O[C@H]1CN2CCC1CC2)N1CCc2ccccc2[C@@H]1c1ccccc1 [SOLIFENACIN SUCCINATE]	Compound NOT metabolized
CCc1nn(CCCN2CCN(c3cccc(Cl)c3)CC2)c(=O)n1CCOc1ccccc1 [NEFAZODONE]	Compound NOT metabolized
C=CC[C@@H]1/C=C(\C)C[C@H](C)C[C@H](OC)[C@H]2O[C@@](O)(C(=O)C(=O)N3CCCC[C@H]3C(=O)O[C@H](/C(C)=C/[C@@H]3CC[C@@H](O)[C@H](OC)C3)[C@H](C)[C@@H](O)CC1=O)[C@H](C)C[C@@H]2OC.O [TACROLIMUS]	Compound metabolized
